Biological target: BRAF^V600E (Mus musculus, UniProt P28028, V585E)
Sequence (P28028 whole entry V585E): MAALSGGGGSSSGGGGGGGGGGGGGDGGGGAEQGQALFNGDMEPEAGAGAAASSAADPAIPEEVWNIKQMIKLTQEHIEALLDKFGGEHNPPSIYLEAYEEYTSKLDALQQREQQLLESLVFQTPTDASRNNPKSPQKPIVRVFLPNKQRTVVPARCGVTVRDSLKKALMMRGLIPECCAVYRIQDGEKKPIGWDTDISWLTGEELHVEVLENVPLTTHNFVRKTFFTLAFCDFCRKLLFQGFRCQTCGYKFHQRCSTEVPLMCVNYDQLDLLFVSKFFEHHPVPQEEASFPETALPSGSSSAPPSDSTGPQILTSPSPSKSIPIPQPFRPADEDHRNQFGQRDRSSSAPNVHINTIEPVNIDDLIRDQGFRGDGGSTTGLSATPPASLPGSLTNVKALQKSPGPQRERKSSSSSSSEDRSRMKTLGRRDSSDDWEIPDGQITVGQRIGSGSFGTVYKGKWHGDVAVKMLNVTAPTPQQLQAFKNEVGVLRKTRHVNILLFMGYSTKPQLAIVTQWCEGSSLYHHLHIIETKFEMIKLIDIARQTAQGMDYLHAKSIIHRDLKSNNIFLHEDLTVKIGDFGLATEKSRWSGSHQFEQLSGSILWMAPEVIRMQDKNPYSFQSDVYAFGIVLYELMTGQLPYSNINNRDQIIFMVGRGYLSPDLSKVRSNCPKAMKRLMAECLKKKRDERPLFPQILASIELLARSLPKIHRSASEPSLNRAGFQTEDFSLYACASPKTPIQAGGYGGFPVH
Experiment: BRAF^V600E inhibitory assay
IC50 vs 70 nM: less than gives Criterion met; not less than gives Criterion not met.

>>> df
                                   compound  assigned_category
0  Cc1ccc2c3c(c(=O)[nH]c2c1)C(c1ccccc1)C(C#N)=C(N)O3 (centres unmarked)  Criterion not met
1  N#CC1=C(N)Oc2c(c(=O)[nH]c3ccccc23)C1c1ccccc1 (centres unmarked)  Criterion not met
2  Cn1c(=O)c2c(c3ccccc31)OC(N)=C(C#N)C2c1ccccc1 (centres unmarked)      Criterion met
3  COc1ccc(C2C(C#N)=C(N)Oc3c2c(=O)[nH]c2ccc(OC)cc32)cc1 (centres unmarked)      Criterion met
4  COc1ccc(C2C(C#N)=C(N)Oc3c2c(=O)n(C)c2ccccc32)cc1 (centres unmarked)  Criterion not met

Sourced from paper PMC12517401
